System: HIV-1 (NL4-3 strain)
EXPERIMENT DESCRIPTION: Assay for Inhibition of HIV Replication (kinetic assay, MT4-gag-GFP reporter cell line; VIKING)
Assay type: cell-based
CONDITION SUMMARY: MT4-GFP cells infected with HIV-1 NL4-3; 100% normal human serum (NHS); read-out: VIKING IP50 (nM) with 100% NHS
Here, each record is paired with measured IC50 data.
Kindly answer with a numeric value in nM, unit omitted.

Lookup: // lookup IC50 for O=C(NCc1ccc(F)cc1F)c1c2n3c(c(O)c1=O)C(=O)N1CCCCOC1C3CC2 (single isomer, unassigned) [Compound 69]
Found: 349

Lookup: // lookup IC50 for CCNC1CC2C3OCCCN3C(=O)c3c(O)c(=O)c(C(=O)NCc4cccc(F)c4F)c1n32 (stereo not shown) [Compound 190]
Found: 66.4

Lookup: // lookup IC50 for COC1CC2C3N(C)CCN3C(=O)c3c(O)c(=O)c(C(=O)NCc4ccc(F)cc4F)c1n32 (stereo not shown) [Compound 127]
Found: 11.7

Lookup: // lookup IC50 for CN1CCCN2C(=O)c3c(O)c(=O)c(C(=O)NCc4cccc(Cl)c4F)c4n3C(CC4)C12 (single isomer, unassigned) [Compound 87]
Found: 1000

* * *

System: HIV-1 (NL4-3 strain)
EXPERIMENT DESCRIPTION: Assay for Inhibition of HIV Replication (kinetic assay, MT4-gag-GFP reporter cell line; VIKING)
Type: cell-based
CONDITION SUMMARY: MT4-GFP cells infected with HIV-1 NL4-3; 100% normal human serum (NHS); read-out: VIKING IP50 (nM) with 100% NHS
Here, each record is paired with measured log10 of IC50 data.
Hi team, quick reminder: these entries are log10 of IC50 (nM).

Worked examples, 4 compounds total:
{"columns": ["COMPOUND", "TEST TARGET", "MEASURE NAME", "READING"],
 "data": [
  ["C[C@H]1COC2C3CCc4c(C(=O)NCc5cccc(Cl)c5F)c(=O)c(O)c(n43)C(=O)N21 (single isomer, unassigned) [Compound 31]", "HIV-1 (NL4-3 strain)", "log10 of IC50", 2.29],
  ["CCNC1CC2C3OCCCN3C(=O)c3c(O)c(=O)c(C(=O)NCc4c(F)cc(F)cc4F)c1n32 (stereo not drawn) [Compound 178]", "HIV-1 (NL4-3 strain)", "log10 of IC50", 3.78],
  ["CCNC1CC2C3OCCCN3C(=O)c3c(O)c(=O)c(C(=O)NCc4cccc(Cl)c4F)c1n32 (stereo not drawn) [Compound 195]", "HIV-1 (NL4-3 strain)", "log10 of IC50", 1.41],
  ["O=C(NCc1c(F)cc(F)cc1F)c1c2n3c(c(O)c1=O)C(=O)N1CCOC1C3CC2 (single isomer, unassigned) [Compound 19]", "HIV-1 (NL4-3 strain)", "log10 of IC50", 3.09]
]}

Lookup: // lookup log10 of IC50 for C[C@H]1CN2C(=O)c3c(O)c(=O)c(C(=O)NCc4cccc(Cl)c4F)c4n3C(CC4)C2N1S(C)(=O)=O (stereo partly drawn) [Compound 118]
Found: 3.11

Lookup: // lookup log10 of IC50 for C[C@H]1CNC2C3CCc4c(-c5nnc(Cc6ccc(F)cc6F)s5)c(=O)c(O)c(n43)C(=O)N21 (stereo partly drawn)
Found: 2.45

Lookup: // lookup log10 of IC50 for O=C(NCc1cccc(Cl)c1F)c1c2n3c(c(O)c1=O)C(=O)N1CCCCOC1C3CC2 (single isomer, unassigned) [Compound 67]
Found: 3.17

Lookup: // lookup log10 of IC50 for CCCN1C2C3CCc4c(C(=O)NCc5cccc(Cl)c5F)c(=O)c(O)c(n43)C(=O)N2C[C@@H]1C (stereo partly drawn) [Compound 107]
Found: 2.43

* * *

Tested on: HIV-1 (NL4-3 strain)
EXPERIMENT DESCRIPTION: Assay for Inhibition of HIV Replication (kinetic assay, MT4-gag-GFP reporter cell line; VIKING)
Assay type: cell-based
CONDITION SUMMARY: MT4-GFP cells infected with HIV-1 NL4-3; 0% normal human serum (NHS); read-out: VIKING IP50 (nM) with 0% NHS
Description: This assay is a kinetic assay that employs a reporter cell line (MT4-gag-GFP) to quantify the number of new cells infected in each round of replication. MT4-GFP cells (250,000 cells/ml) were bulk-infected with HIV-1 (NL4-3 strain) at low multiplicity of infection (MOI) in RPMI cell culture medium+10% FBS for 24 hours. […] The infected cells (Green GFP cells) were quantified at both 24 and 48 hours post incubation using Acumen eX3. […]
MEASURE NAME: IC50 (nM)
Kindly answer with a numeric value in nM, unit omitted.

{"columns": ["COMPOUND", "READING"],
 "data": [
  ["CCNC1C[C@@H]2[C@H]3OC4CCC(C4)N3C(=O)c3c(O)c(=O)c(C(=O)NCc4ccc(F)cc4F)c1n32 (stereo partly shown) [Compound 175]", 20.8],
  ["CCCN1C2C3CCc4c(C(=O)NCc5cccc(Cl)c5F)c(=O)c(O)c(n43)C(=O)N2C[C@@H]1C (stereo partly shown) [Compound 108]", 1.17],
  ["C[C@H]1COC2C3CCc4c(C(=O)NCc5cccc(Cl)c5F)c(=O)c(O)c(n43)C(=O)N21 (single isomer, unassigned) [Compound 30]", 0.536],
  ["O=C(NCc1ccc(F)cc1)c1c2n3c(c(O)c1=O)C(=O)N1CCCOC1C3CC2 (single isomer, unassigned) [Compound 53]", 0.963]
]}

Lookup: // lookup IC50 for O=C(NCc1ccc(F)c(Cl)c1)c1c2n3c(c(O)c1=O)C(=O)N1CCOC1C3CC2 (single isomer, unassigned) [Compound 23]
Found: 1.06

Lookup: // lookup IC50 for CCNC1CC2C3OCCCN3C(=O)c3c(O)c(=O)c(C(=O)NCc4cccc(F)c4F)c1n32 (stereo not shown) [Compound 190]
Found: 5.26

Lookup: // lookup IC50 for CCNC1CC2C3OCCCN3C(=O)c3c(O)c(=O)c(C(=O)NCc4c(F)cc(F)cc4F)c1n32 (stereo not shown) [Compound 178]
Found: 16

Lookup: // lookup IC50 for C[C@H]1CCOC2C3CCc4c(C(=O)NCc5ccc(F)cc5F)c(=O)c(O)c(n43)C(=O)N21 (single isomer, unassigned) [Compound 62]
Found: 0.83

Lookup: // lookup IC50 for O=C(NCc1cccc(Cl)c1F)c1c2n3c(c(O)c1=O)C(=O)N1CCCCOC1C3CC2 (single isomer, unassigned) [Compound 67]
Found: 0.577

* * *

Test system: HIV-1 (NL4-3 strain)
EXPERIMENT DESCRIPTION: Assay for Inhibition of HIV Replication (kinetic assay, MT4-gag-GFP reporter cell line; VIKING)
Format: cell-based
CONDITION SUMMARY: MT4-GFP cells infected with HIV-1 NL4-3; 0% normal human serum (NHS); read-out: VIKING IP50 (nM) with 0% NHS
MEASURE NAME: IC50 (nM)
Kindly answer with a numeric value in nM, unit omitted.

{"columns": ["MOLECULE", "IC50 / nM"],
 "data": [
  ["O=C(NCc1c(F)cc(F)cc1F)c1c2n3c(c(O)c1=O)C(=O)N1CCOC1C3CC2 (single isomer, unassigned) [Compound 21]", 0.605],
  ["C[C@H]1CN2C(=O)c3c(O)c(=O)c(C(=O)NCc4cccc(Cl)c4F)c4n3C(CC4)C2N1C (stereo partly shown) [Compound 105]", 0.495],
  ["C[C@H]1CNC2C3CCc4c(C(=O)NCc5cccc(Cl)c5F)c(=O)c(O)c(n43)C(=O)N21 (stereo partly shown) [Compound 90]", 0.397]
]}

Lookup: // lookup IC50 for O=C(NCc1cccc(F)c1F)c1c2n3c(c(O)c1=O)C(=O)N1C4CCC(C4)OC1C3CC2 (stereo not shown) [Compound 166]
Found: 5.39

* * *

Tested on: HIV-1 (NL4-3 strain)
EXPERIMENT DESCRIPTION: Assay for Inhibition of HIV Replication (kinetic assay, MT4-gag-GFP reporter cell line; VIKING)
Type: cell-based
CONDITION SUMMARY: MT4-GFP cells infected with HIV-1 NL4-3; 100% normal human serum (NHS); read-out: VIKING IP50 (nM) with 100% NHS
MEASURE NAME: log10 of IC50 (log10 of the value in nM)
Hi team, quick reminder: these entries are log10 of IC50 (nM).

Worked examples, 3 molecules total:
{"columns": ["MOLECULE", "TEST TARGET", "READING"],
 "data": [
  ["O=C(NCc1ccccc1F)c1c2n3c(c(O)c1=O)C(=O)N1CCOC1C3CC2 (single isomer, unassigned) [Compound 10]", "HIV-1 (NL4-3 strain)", 2.35],
  ["CN1CCCN2C(=O)c3c(O)c(=O)c(C(=O)NCc4cccc(Cl)c4F)c4n3C(CC4)C12 (single isomer, unassigned) [Compound 86]", "HIV-1 (NL4-3 strain)", 0.96],
  ["CCNC1CC2C3OCCCN3C(=O)c3c(O)c(=O)c(C(=O)NCc4cccc(Cl)c4F)c1n32 (centres unmarked) [Compound 197]", "HIV-1 (NL4-3 strain)", 4.18]
]}

Lookup: # returns recorded log10 of IC50 (system: HIV-1 (NL4-3 strain)) for O=C(NCc1ccc(F)cc1F)c1c2n3c(c(O)c1=O)C(=O)N1CCOC1C3CC2 (single isomer, unassigned) [Compound 8]
Found: 2.39

Lookup: # returns recorded log10 of IC50 (system: HIV-1 (NL4-3 strain)) for CCNC1C[C@@H]2[C@H]3OC4CCC(C4)N3C(=O)c3c(O)c(=O)c(C(=O)NCc4ccc(F)cc4F)c1n32 (some centres unmarked)
Found: 1.90
